Entry source: patent US20090028788A1

- system.tested: T1, purified human αvβ3 integrin protein (human, UniProt P06756 31-1048; P05106 27-788)
- T1 construct: Bought heterodimer; also called ABI; purified αvβ3 integrin
- assay.overview: competition with 125I-echistatin on purified human αvβ3 integrin, filter plate;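 note: test ligands incubated two hours at room temperature with the integrin, bound radioactivity retained on filters measured by gamma counting, IC50 obtained through nonlinear regression fitting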
pIC50: −log10 of the molar value. Bridges are numbered along the chain shown (N, C = ends). Primed or numbered codes have the meaning given here. [ ]: non-standard residue; d: D form. The star is where a group is joined. Cypate = CC1(C)C(/C=C/C=C/C=C/C=C2/N(CCC(=O)*)c3ccc4ccccc4c3C2(C)C)=[N+](CCC(=O)O)c2ccc3ccccc3c21; Cypate′ = NIR carbocyanine dye; βAla = NCCC(=O)O
property.name: pIC50

>>> result("H-[βAla]DCRGDC(Et)FV-OH (SMILES CCSC[C@H](NC(=O)[C@H](CC(=O)O)NC(=O)CNC(=O)[C@H](CCCNC(=N)N)NC(=O)[C@H](CS)NC(=O)[C@H](CC(=O)O)NC(=O)CCN)C(=O)N[C@@H](Cc1ccccc1)C(=O)N[C@H](C(=O)O)C(C)C) [H-B-Ala-Asp-Cys-Arg-Gly-Asp-Cys(Et)-Phe-Val-OH]")
6.48

a: {Cypate′}-VRGD[dF]CY[dW]KTCT-OH (disulfide 6-11) [Cypate-Val-Arg-Gly-Asp-DPhe-Cyclo(Cys-Tyr-DTrp-Lys-Thr-Cys)-Thr-OH]
b: H-RGDSPK(Cypate)-NH2 [H-Arg-Gly-Asp-Ser-Pro-Lys(Cypate)-NH2]
Kindly identify which of a and b has the larger recorded pIC50 value. Lab log: write the label of the selected item as the result.
b
(b: 6.00, a: 3.49)
